Tested on: Plasmodium berghei line expressing luciferase (Pb-luc) sporozoites
Assay: Liver stage P. berghei luciferase proliferation assay in CD81-GFP-HepG2 cells
Type: cell-based
Details: values marked * in Table 2, CD81-GFP-HepG2 cells, 48 h, luminescence, read-out: EC50 (nM), P. berghei luciferase Proliferation Assay
experimental endpoint: EC50

[
  {
    "compound string": "CCN(C(=O)c1ccn2ncc(-c3ccc(C(=O)NC)nc3)c2c1)c1ccc(C#N)cn1",
    "measured target": "Plasmodium berghei line expressing luciferase (Pb-luc) sporozoites",
    "experimental endpoint": "EC50",
    "measured": "19 nM"
  },
  {
    "compound string": "CNC(=O)c1ccc(-c2cnn3ccc(C(=O)N(c4ccc(C#N)cn4)C(C)C)cc23)cn1",
    "measured target": "Plasmodium berghei line expressing luciferase (Pb-luc) sporozoites",
    "experimental endpoint": "EC50",
    "measured": "18 nM"
  },
  {
    "compound string": "CNC(=O)c1ccc(-c2cnn3ccc(C(=O)N(c4ccc(C#N)cc4)C4CC4)cc23)nc1",
    "measured target": "Plasmodium berghei line expressing luciferase (Pb-luc) sporozoites",
    "experimental endpoint": "EC50",
    "measured": "17 nM"
  },
  {
    "compound string": "CNC(=O)c1ccc(-c2cnn3ccc(C(=O)N(c4ccc(C#N)cn4)C(C)C)cc23)nc1",
    "measured target": "Plasmodium berghei line expressing luciferase (Pb-luc) sporozoites",
    "experimental endpoint": "EC50",
    "measured": "36 nM"
  }
]

----------
Measured EC50 by item
System: P. falciparum (NF54 or 3D7 strain)
Assay: P. falciparum proliferation assay in infected human blood cells (SYBR Green)
Type: cell-based
Conditions: Plasmodium falciparum, Erythrocyte, 72 h, read-out: EC50 (nM), inhibitory efficacy in delaying P. falciparum proliferation in infected human blood cells

[
  {
    "molecule": "CNC(=O)c1ccc(-c2cnn3ccc(C(=O)N(c4ccc(C#N)cc4)C4CC4)cc23)nc1 [Example 141]",
    "EC50 / nM": 65
  },
  {
    "molecule": "N#Cc1ccc(N(C(=O)c2ccn3ncc(-c4ccc(C(N)=O)cn4)c3c2)C2CC2)cc1 [Example 142]",
    "EC50 / nM": 48
  },
  {
    "molecule": "CNC(=O)c1ccc(-c2cnn3ccc(C(=O)N(c4ccc(C#N)cn4)C4CCC4)cc23)nc1 [Example 155]",
    "EC50 / nM": 82
  },
  {
    "molecule": "CNC(=O)c1ccc(-c2cnn3ccc(C(=O)N(c4ccc(C#N)cn4)C(C)C)cc23)nc1 [Example 154]",
    "EC50 / nM": 200
  }
]

----------
Tested on: Plasmodium berghei line expressing luciferase (Pb-luc) sporozoites
Assay: Liver stage P. berghei luciferase proliferation assay in CD81-GFP-HepG2 cells
Assay type: cell-based
Conditions: values marked * in Table 2, CD81-GFP-HepG2 cells, 48 h, luminescence, read-out: EC50 (nM), P. berghei luciferase Proliferation Assay
Procedure: Liver Stage P. berghei Luciferase Proliferation Assay CD81-GFP-HepG2 cells (obtained from the lab of Dominique Mazier) were seeded into GNF custom Greiner plates (1536-well, white, TC-treated, solid bottom). […] Luciferase signal, which corresponds with parasite proliferation, was detected by adding 2 uL of BrightGlo (Promega) to each well using the MicroFlo (Biotek; 1 ul cassette). Luminescence was immediately measured on an Envision MultiLabel Plate Reader (PerkinElmer).
Under this convention, yes denotes EC50 strictly below 20 nM and no denotes EC50 at or above 20 nM.

[
  {
    "compound string": "CNC(=O)c1ccc(-c2cnn3ccc(C(=O)N(c4ccc(C#N)cn4)C4CCC4)cc23)nc1",
    "class": "no"
  },
  {
    "compound string": "CNC(=O)c1ccc(-c2cnn3ccc(S(=O)(=O)N(C)c4ccc(C#N)cn4)cc23)cc1",
    "class": "yes"
  },
  {
    "compound string": "CCN(C(=O)c1ccn2ncc(-c3ccc(C(=O)NC)nc3)c2c1)c1ccc(F)cn1",
    "class": "no"
  },
  {
    "compound string": "CNC(=O)c1ccc(-c2cnn3ccc(C(=O)N(c4ccc(C#N)cn4)C4CCC4)cc23)cn1",
    "class": "no"
  },
  {
    "compound string": "CNC(=O)c1ccc(-c2cnn3ccc(C(=O)N(c4ccc(F)cn4)C(C)C)cc23)cc1",
    "class": "yes"
  },
  {
    "compound string": "CCN(C(=O)c1ccn2ncc(-c3ccc(S(C)(=O)=O)cc3)c2c1)c1ccc(C#N)cn1",
    "class": "yes"
  },
  {
    "compound string": "CNC(=O)c1ccc(-c2cnn3ccc(C(=O)N(c4ccc(C(F)(F)F)cn4)C(C)C)cc23)cn1",
    "class": "no"
  },
  {
    "compound string": "CNC(=O)c1ccc(-c2cnn3ccc(C(=O)N(c4ccc(C)cn4)C4CC4)cc23)cc1",
    "class": "yes"
  },
  {
    "compound string": "CCN(C(=O)c1ccn2ncc(-c3ccc(C(=O)NC)cc3)c2c1)c1ccc(F)cn1",
    "class": "yes"
  },
  {
    "compound string": "CNC(=O)c1ccc(-c2cnn3ccc(C(=O)N(c4ccc(C#N)c(OC)n4)C4CC4)cc23)cc1",
    "class": "yes"
  },
  {
    "compound string": "CNC(=O)c1ccc(-c2cnn3ccc(C(=O)N(c4ccc(C#N)cc4)C4CC4)cc23)cn1",
    "class": "yes"
  },
  {
    "compound string": "CNC(=O)c1ccc(-c2cnn3ccc(C(=O)N(c4ccc(Cl)cc4)C4CC4)cc23)cn1",
    "class": "yes"
  },
  {
    "compound string": "CNC(=O)c1ccc(-c2cnn3ccc(C(=O)N(c4ccc(C#N)cn4)C4CC4)cc23)nc1",
    "class": "no"
  },
  {
    "compound string": "CNC(=O)c1ccc(-c2cnn3ccc(C(=O)N(c4ccc(C(F)(F)F)cn4)C4CCC4)cc23)cc1",
    "class": "yes"
  },
  {
    "compound string": "CNC(=O)c1ccc(-c2cnn3ccc(N(C)C(=O)c4ccc(C#N)cn4)cc23)cc1",
    "class": "yes"
  },
  {
    "compound string": "CCN(C(=O)c1ccn2ncc(-c3ccc(C(=O)NC)cc3)c2c1)c1ccc(C#N)c(OCCO)n1",
    "class": "yes"
  },
  {
    "compound string": "CCN(C(=O)c1ccn2ncc(-c3ccc(C(=O)NC)cc3)c2c1)c1ccc(C(F)(F)F)cn1",
    "class": "yes"
  },
  {
    "compound string": "CNC(=O)c1ccc(-c2cnn3ccc(C(=O)N(c4ccc(C(F)(F)F)cn4)C(C)C)cc23)cc1",
    "class": "yes"
  },
  {
    "compound string": "CNC(=O)c1ccc(-c2cnn3ccc(C(=O)N(NC)c4ccc(C#N)cc4)cc23)cn1",
    "class": "yes"
  }
]
